Below, each of the binders is paired with its reported OD value.
measured-target: T1, truncated recombinant form of HBeAg containing nine residues of pre-core and the 150 first residues of HBcAg (hepatitis B virus, UniProt P03146 1-150)
T1 construct: domain: nine residues of pre-core;range 1-150; also called hepatitis B virus e antigen
T1 sequence (P03146 1-150): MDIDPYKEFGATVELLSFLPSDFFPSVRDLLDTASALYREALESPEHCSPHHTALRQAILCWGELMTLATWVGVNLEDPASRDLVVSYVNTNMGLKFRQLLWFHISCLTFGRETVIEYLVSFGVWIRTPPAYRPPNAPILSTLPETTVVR
assay-comment: EIA, support-bound peptide, HBeAg 2.5 ug/ml
quantity-measured: OD (OD)

binder	value-reported
LAVSLGQRATISCRASQSVS [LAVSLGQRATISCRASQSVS (SEQ. ID. No. 16)]	0.03
ISCRASQSVSTSSYSYMHWY [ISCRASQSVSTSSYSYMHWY (SEQ. ID. No. 17)]	0.102
VKPGASVKISCKASGYSFTG (also called Peptide # 25) [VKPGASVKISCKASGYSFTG (SEQ. ID. No. 28)]	0.115
CKASGYSFTGYNMNWVKQSH (also called Peptide # 26) [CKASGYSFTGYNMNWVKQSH (SEQ. ID. No. 29)]	0.063
YNMNWVKQSHGKSLEWIGNI (also called Peptide # 27) [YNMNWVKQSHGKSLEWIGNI (SEQ. ID. No. 30)]	0.032
VKPGASVKLSCKASGYIFTS (also called Peptide # 2; Pept. #2) [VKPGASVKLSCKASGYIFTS (SEQ. ID. No. 5)]	0.063
